Target Under Test: complement C5a receptor 1 (C5aR1) (Homo sapiens, UniProt P21730)
Construct: β-galactosidase fragment (PathHunter enzyme complementation); host or cells: CHO-K1 (PathHunter CHO-K1 C5aR1 β-arrestin cell line)
Sequence (P21730 whole entry, the tested form may be a part): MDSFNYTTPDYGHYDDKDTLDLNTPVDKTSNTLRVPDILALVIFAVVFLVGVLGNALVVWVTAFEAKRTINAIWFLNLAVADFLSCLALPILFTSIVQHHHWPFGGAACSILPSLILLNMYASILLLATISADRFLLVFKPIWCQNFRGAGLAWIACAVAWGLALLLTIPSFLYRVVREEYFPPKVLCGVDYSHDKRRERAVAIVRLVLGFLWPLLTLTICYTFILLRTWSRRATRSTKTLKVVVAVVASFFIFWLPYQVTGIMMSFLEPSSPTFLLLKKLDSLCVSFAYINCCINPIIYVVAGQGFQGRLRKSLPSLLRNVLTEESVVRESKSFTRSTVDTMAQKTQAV
Test: β-arrestin recruitment via C5aR1 activation in live CHO-K1 cells (PathHunter), antagonist mode
Type: cell-based
Endpoint Label: IC50

Solved entries:
Cc1cccc(F)c1N1CCC(c2cc3nccnc3n(Cc3cnc(C(F)(F)F)cn3)c2=O)CC1 > 100 µM
Cc1cccc(F)c1N1CCC(c2cc3nccnc3n(Cc3cncc(C(F)(F)F)n3)c2=O)CC1 5 to 100 µM
Cc1cnc2cc(C3CCN(c4c(C)cccc4F)CC3)c(=O)n(Cc3cccnc3OC(F)(F)F)c2n1 < 0.5 µM
Cc1cccc(F)c1N1CCC(c2nc3nccnc3n(Cc3ccccc3C(F)(F)F)c2=O)CC1 0.5 to 5 µM

Proceeding to the next molecule to report its IC50.
Input: Recorded IC50 of Cc1ccccc1N1CCC(c2cc3nccnc3n(Cc3nccnc3C)c2=O)CC1 , please.
Output: 0.5 to 5 µM
